Target System: HDAC3 (Homo sapiens)
Construct: purchased Reaction Biology Corporation (assay run by the CRO)
Sequence (O15379 whole entry): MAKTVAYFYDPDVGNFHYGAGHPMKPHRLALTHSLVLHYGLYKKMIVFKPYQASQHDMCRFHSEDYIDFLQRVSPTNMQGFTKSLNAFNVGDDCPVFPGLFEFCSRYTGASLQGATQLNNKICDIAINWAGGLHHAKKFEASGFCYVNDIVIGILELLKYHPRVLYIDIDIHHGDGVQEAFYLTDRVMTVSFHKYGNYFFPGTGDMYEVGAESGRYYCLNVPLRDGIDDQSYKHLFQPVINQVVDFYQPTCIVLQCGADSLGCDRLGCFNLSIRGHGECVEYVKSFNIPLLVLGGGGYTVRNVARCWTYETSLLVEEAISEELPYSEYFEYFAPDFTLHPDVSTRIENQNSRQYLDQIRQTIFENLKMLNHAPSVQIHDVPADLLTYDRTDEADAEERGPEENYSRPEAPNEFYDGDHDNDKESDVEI
Sequence (Q9Y618 395-489 partner limits assumed): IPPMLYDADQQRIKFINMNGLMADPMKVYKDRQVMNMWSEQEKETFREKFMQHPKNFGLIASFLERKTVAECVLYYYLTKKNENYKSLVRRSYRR
Assay Info: HDAC3 inhibition, full IC50 measurement (Reaction Biology; fluorogenic p53 peptide RHKK(Ac)AMC)
Type: biochemical
Experimental Conditions: Conc. 3.70E-07 M, t1
Peptide text beside a SMILES is read from it.
Returns one of true or false; true when HDAC3 activity raw data (signal) is >= 300000.

Use these answered entries as a reference point.
Decide: is the reported value of HDAC3 activity raw data (signal) for N=C(N)NCCC[C@@H]1NC(=O)[C@@H](CCCNC(=N)N)NC(=O)[C@H]2CCCN2C(=O)[C@@H](Cc2c[nH]cn2)NC(=O)[C@H](Cc2ccc(O)cc2)NC(=O)[C@H](CCCCCS)NC(=O)[C@H](CCc2ccccc2)NC(=O)[C@@H](CO)NC(=O)[C@H](CC(=O)O)NC1=O [des3.3.1, SHA-Tyr-dHis-dPro-dArg-Arg-Asp-dSer-C27] (HELM PEPTIDE1{[O=C([C@H](CCCCCS)N[*:1])[*:2]].Y.[dH].[dP].[dR].R.D.[dS].[O=C([C@H](CCc1ccccc1)N[*:1])[*:2]]}$PEPTIDE1,PEPTIDE1,1:R1-9:R2$$$V2.0) equal to or greater than 300000?
false

Is HDAC3 activity raw data (signal) at least 300000? Consider CSCC[C@H]1NC(=O)[C@@H](CO)NC(=O)[C@H](CC(N)=O)NC(=O)[C@H](CC(=O)O)NC(=O)[C@@H]([C@H](C)O)NC(=O)[C@H](Cc2c[nH]c3ccccc23)NC(=O)[C@H](CCCCCS)NC(=O)[C@H](CCCCN)NC(=O)[C@@H](CC(=O)O)NC1=O [des2.1.1, SHA-Trp-dThr-Asp-Asn-dSer-dMet-dAsp-Lys] (HELM PEPTIDE1{D.N.[dS].[dM].[dD].K.[O=C([C@H](CCCCCS)N[*:1])[*:2]].W.[dT]}$PEPTIDE1,PEPTIDE1,1:R1-9:R2$$$V2.0)
false

Record NCCCC[C@@H]1NC(=O)[C@@H]2CCCN2C(=O)[C@H](CC(N)=O)NC(=O)[C@H](CCCCCS)NC(=O)CNC(=O)[C@H](Cc2c[nH]c3ccccc23)NC(=O)[C@@H](CCCCN)NC(=O)[C@H](CCC(N)=O)NC1=O [des1.1.0, SHA-Asn-Pro-Lys-Gln-dLys-Trp-Gly] (HELM PEPTIDE1{G.[O=C([C@H](CCCCCS)N[*:1])[*:2]].N.P.K.Q.[dK].W}$PEPTIDE1,PEPTIDE1,1:R1-8:R2$$$V2.0) ; criterion: HDAC3 activity raw data (signal) no lower than 300000. Met?
false

API: above_or_equal(metric=HDAC3 activity raw data (signal), cutoff=300000) for item CC(C)C[C@H]1NC(=O)[C@H](Cc2c[nH]c3ccccc23)NC(=O)[C@H](CCCCCS)NC(=O)[C@@H](Cc2ccc(O)cc2)NC(=O)[C@@H](C(C)C)NC(=O)[C@H](Cc2c[nH]cn2)NC(=O)CNC(=O)CNC(=O)[C@@H](CO)NC1=O [des2.2.0, SHA-Trp-dLeu-dSer-Gly-Gly-His-dVal-dTyr] (HELM PEPTIDE1{G.G.H.[dV].[dY].[O=C([C@H](CCCCCS)N[*:1])[*:2]].W.[dL].[dS]}$PEPTIDE1,PEPTIDE1,1:R1-9:R2$$$V2.0)
true

---
Does the reported HDAC3 activity raw data (signal) for N=C(N)NCCC[C@H]1NC(=O)[C@@H]2CCCN2C(=O)[C@H](CO)NC(=O)[C@@H](Cc2c[nH]cn2)NC(=O)[C@H](CCCCCS)NC(=O)[C@H](CCCCN)NC(=O)[C@H](Cc2ccc(O)cc2)NC(=O)[C@H]2CCCN2C(=O)[C@@H](CCC(N)=O)NC1=O [des3.1.0, SHA-dHis-Ser-Pro-dArg-dGln-dPro-Tyr-Lys] (HELM PEPTIDE1{K.[O=C([C@H](CCCCCS)N[*:1])[*:2]].[dH].S.P.[dR].[dQ].[dP].Y}$PEPTIDE1,PEPTIDE1,1:R1-9:R2$$$V2.0) fall at or above the 300000 mark?
true

Identify whether the reported HDAC3 activity raw data (signal) of the following compound is 300000 or greater: NCCCC[C@@H]1NC(=O)[C@@H]2C[C@@H](O)CN2C(=O)[C@H](CC(N)=O)NC(=O)[C@H](CCCCCS)NC(=O)CNC(=O)[C@H](Cc2c[nH]c3ccccc23)NC(=O)[C@@H](CCCCN)NC(=O)[C@H](CCC(N)=O)NC1=O [des1.1.2, SHA-Asn-Hpr-Lys-Gln-dLys-Trp-Gly] (HELM PEPTIDE1{G.[O=C([C@H](CCCCCS)N[*:1])[*:2]].N.[Hyp].K.Q.[dK].W}$PEPTIDE1,PEPTIDE1,1:R1-8:R2$$$V2.0)
true

I'd appreciate it if you could say whether C[C@H](O)[C@H]1NC(=O)[C@H](Cc2c[nH]c3ccccc23)NC(=O)[C@H](CCCCCS)NC(=O)[C@H](CCCCN)NC(=O)[C@@H](CC(=O)O)NC(=O)[C@@H](CCCCN)NC(=O)[C@@H](CO)NC(=O)[C@H](CC(N)=O)NC(=O)[C@H](CC(=O)O)NC1=O [des2.1.0, SHA-Trp-dThr-Asp-Asn-dSer-dLys-dAsp-Lys] (HELM PEPTIDE1{D.N.[dS].[dK].[dD].K.[O=C([C@H](CCCCCS)N[*:1])[*:2]].W.[dT]}$PEPTIDE1,PEPTIDE1,1:R1-9:R2$$$V2.0) has HDAC3 activity raw data (signal) at least equal to 300000.
false

Identify whether the reported HDAC3 activity raw data (signal) of the following compound is 300000 or greater: NCCCC[C@H]1NC(=O)[C@H](CCC(N)=O)NC(=O)[C@H](CCC(=O)O)NC(=O)[C@@H]2CCCN2C(=O)[C@H](CC(N)=O)NC(=O)[C@H](CCCCCS)NC(=O)CNC(=O)[C@H](Cc2c[nH]c3ccccc23)NC1=O [des1.1.1, SHA-Asn-Pro-Glu-Gln-dLys-Trp-Gly] (HELM PEPTIDE1{E.Q.[dK].W.G.[O=C([C@H](CCCCCS)N[*:1])[*:2]].N.P}$PEPTIDE1,PEPTIDE1,1:R1-8:R2$$$V2.0)
true

# check: HDAC3 activity raw data (signal) of CCCC[C@H]1NC(=O)[C@H](Cc2ccccc2)NC(=O)[C@H](CCCCCS)NC(=O)[C@@H](CCCNC(=N)N)NC(=O)[C@H](CC(=O)O)NC(=O)[C@@H](CO)NC(=O)[C@@H](C)NC(=O)[C@H](CCCCN)NC1=O [des4.3.1, SHA-Phe-dNle-Lys-dAla-dSer-Asp-dArg] (HELM PEPTIDE1{D.[dR].[O=C([C@H](CCCCCS)N[*:1])[*:2]].F.[CCCC[C@@H](N[*:1])C(=O)[*:2]].K.[dA].[dS]}$PEPTIDE1,PEPTIDE1,1:R1-8:R2$$$V2.0) is greater than or equal to 300000
true

src = paper PMC8185074
